Biological target: ProLink tagged human APJ (Apelin Receptor) in CHO-K1 AGTRL1 β-Arrestin cells (human, UniProt P35414 1-380)
Sequence (P35414 whole entry): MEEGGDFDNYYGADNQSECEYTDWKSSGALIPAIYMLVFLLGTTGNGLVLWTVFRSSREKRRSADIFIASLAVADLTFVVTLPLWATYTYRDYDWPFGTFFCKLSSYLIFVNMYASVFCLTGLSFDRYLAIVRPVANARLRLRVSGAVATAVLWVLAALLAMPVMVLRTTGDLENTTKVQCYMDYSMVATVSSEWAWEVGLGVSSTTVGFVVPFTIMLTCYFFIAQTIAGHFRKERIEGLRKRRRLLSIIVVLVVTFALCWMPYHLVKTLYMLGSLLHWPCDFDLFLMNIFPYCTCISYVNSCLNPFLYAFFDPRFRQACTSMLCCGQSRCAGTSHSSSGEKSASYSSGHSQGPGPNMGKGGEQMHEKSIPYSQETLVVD
Assay: cell-based or functional assay
Square brackets hold non-standard residues; d marks the D form. Ends that are not written are not given here.
Recorded metric: β-Arrestin recruitment, Percent of Apelin-13 Control Activity (10 µM peptide)
Please format your answer as a value with the unit trailing.

Examples with their reported β-Arrestin recruitment, Percent of Apelin-13 Control Activity (10 µM peptide) follow.
[
  {
    "Binder": "RRMMGMVFQSLCG[dA] (also: acetate salt, HCl salt) [SEQ ID NO: 15]",
    "Reported result": "40%"
  },
  {
    "Binder": "RRMMGMVAQCLCG[dA] (cysteine pairing not given here) [SEQ ID NO: 11]",
    "Reported result": "0%"
  },
  {
    "Binder": "RRLLGLVEQSLCG[dA] [SEQ ID NO: 40]",
    "Reported result": "0%"
  },
  {
    "Binder": "RRMMGMVFQSLCG[dA]-NH2 [SEQ ID NO: 62]",
    "Reported result": "2%"
  },
  {
    "Binder": "RREMVYQCLEG[dA] [SEQ ID NO: 26]",
    "Reported result": "0%"
  }
]

I'm hoping you can list β-Arrestin recruitment, Percent of Apelin-13 Control Activity (10 µM peptide) for every binder here, please.
1. RMMGMVFQS [SEQ ID NO: 52]
2. RRMEVYQCLCG[dA] (cysteine pairing not given here; also: places D-Ala at position 13) [SEQ ID NO: 31]
3. RMMGMVFQSLCG[dA] [SEQ ID NO: 54]
4. Ac-RRMMGMVFQSLCG[dA]-NH2 [SEQ ID NO: 63]
5. RRMGYQCLEG[dA] [SEQ ID NO: 28]
6. RRXXGXVFQCLCGA ((Nle) = norleucine at positions 3, 4 and 6; C-terminal (dA) = D-alanine) [SEQ ID NO: 18]
7. MMGMVFQSL [SEQ ID NO: 48]

1: 0%; 2: 0%; 3: 1%; 4: 9%; 5: -1%; 6: 1%; 7: 1%

I'm hoping you can list β-Arrestin recruitment, Percent of Apelin-13 Control Activity (10 µM peptide) for every binder here, please.
1. KRRLLGLVFQSLCGA ((PEG12) at the N-terminal K; C-terminal (dA) = D-alanine) [SEQ ID NO: 37]
2. RMMGMVFQSL [SEQ ID NO: 53]

1. 12%
2. 1%

Hello, the source for this data is patent US20230218710A1, in case you need it.
